# target or test system: human MPO (Homo sapiens, UniProt P05164)
# Sequence (P05164 279-745 limits assumed): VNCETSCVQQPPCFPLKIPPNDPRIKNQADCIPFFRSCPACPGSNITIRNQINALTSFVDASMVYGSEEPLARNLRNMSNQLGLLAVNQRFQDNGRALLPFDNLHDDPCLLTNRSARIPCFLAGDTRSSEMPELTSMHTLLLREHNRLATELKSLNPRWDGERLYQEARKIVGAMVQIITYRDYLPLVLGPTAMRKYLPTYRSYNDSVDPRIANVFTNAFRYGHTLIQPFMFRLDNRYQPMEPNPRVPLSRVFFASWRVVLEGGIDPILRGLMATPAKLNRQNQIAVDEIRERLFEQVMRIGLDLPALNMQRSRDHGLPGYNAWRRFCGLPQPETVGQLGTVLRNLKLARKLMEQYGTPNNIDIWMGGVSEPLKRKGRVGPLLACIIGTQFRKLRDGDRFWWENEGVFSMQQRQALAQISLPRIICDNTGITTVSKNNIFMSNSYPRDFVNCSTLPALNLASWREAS
# Sequence (P05164 165-273 limits assumed): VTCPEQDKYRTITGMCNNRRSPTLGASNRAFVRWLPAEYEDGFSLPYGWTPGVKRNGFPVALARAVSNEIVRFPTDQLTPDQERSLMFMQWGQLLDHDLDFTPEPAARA
measurement label: Ki (µM)

I = COc1cc(/C=C/C(=O)Oc2ccc3c(c2)OCO3)ccc1O [methylenedioxyphenyl ferulate]
II = COc1cc(/C=C/C(=O)N2CCCC2C(=O)O)ccc1O (centres unmarked)
Ask | Quick check, higher Ki between I and II ? // respond with label for picked entry
Reply | I
(I: 8.5 µM, II: 4 µM)
